These entries and their values trace back to patent US20050080113A1.

Reported melting point is given for each of the following molecules.

Field: example entries. Status: answers known.
# Molecule, Test value
data = [
    ("CCC(=O)Nc1cc(-c2sc(CC)nc2-c2cccc(C(C)C)c2)ccn1 [H 84-7]", "93 to 94 °C"),
    ("CCNC(=O)Nc1cc(-c2sc(CC)nc2-c2cccc(C)c2)ccn1 [H 108]", "160 to 162 °C"),
    ("Cc1cc(C)cc(-c2nc(-c3ccc(S(C)(=O)=O)cc3)sc2-c2ccnc(C)c2)c1 [H 58-1]", "196 to 197 °C"),
]

Exercise: State the recorded melting point for this entry: CCC(=O)Nc1cc(-c2sc(CCSC)nc2-c2cccc(Cl)c2)ccn1 [H 102-2]
Key: 91 to 92 °C

Exercise: Let us now turn to CCc1nc(-c2cccc(Cl)c2)c(-c2ccnc(NC(C)=O)c2)s1 [H 30-2]
Key: 149 to 150 °C

Exercise: Let us now turn to Cc1cccc(-c2nc(N3CCNC3=O)sc2-c2ccnc(C)c2)c1 [H 66]
Key: 200 to 201 °C

Exercise: Let us now turn to Cc1cccc(-c2nc(-c3ccc(S(C)(=O)=O)cc3)sc2N2C=CC=CC2N2CCCCC2)c1 (stereo not drawn) [H 35-2]
Key: 155 to 157 °C

Exercise: Let us now turn to CCc1nc(-c2cccc(C(F)(F)F)c2)c(-c2ccnc(NC(C)=O)c2)s1 [H 82-3]
Key: 146 to 147 °C

Exercise: Let us now turn to Cc1cc(-c2sc(-c3ccc(S(C)(=O)=O)cc3)nc2-c2ccc(F)cc2)ccn1 [H 58-5]
Key: 190 to 192 °C

====

Experimental readout: melting point

Field: example entries. Status: answers known.
# Molecule, melting point
data = [
    ("CCc1nc(-c2cccc(C#N)c2)c(-c2ccnc(N)c2)s1 [H 76]", "178 to 179 °C"),
    ("CSc1ccc(-c2nc(-c3cccc(C)c3)c(-c3ccnc(NC(=O)CCc4ccccc4)c3)s2)cc1 [D 16-16]", "174 to 175 °C"),
]

Exercise: State the recorded melting point for this entry: Cc1cccc(-c2nc(NC(=O)NOc3ccccc3)sc2-c2ccnc(C)c2)c1 [H 64]
Key: 154 to 155 °C

Exercise: Let us now turn to CC(C)(C)c1ccc(-c2nc(N)sc2-c2ccncc2)cc1 [23-143]
Key: 254 to 257 °C

Exercise: Let us now turn to Cc1cccc(-c2nc(-c3ccc(S(C)(=O)=O)cc3)sc2-c2ccnc(NCc3ccc4ccccc4c3)c2)c1 [D 21-7]
Key: 167 to 168 °C

Exercise: Let us now turn to Nc1nc(-c2ccc(F)cc2)c(-c2ccnc(NC3CCCCC3)c2)s1 [H 36-1]
Key: 194 to 195 °C

Exercise: Let us now turn to Cc1cccc(-c2nc(Cc3ccccc3)sc2-c2ccnc(C)c2)c1 [H 14-7]
Key: 82 to 84 °C

Exercise: Let us now turn to CCc1nc(-c2ccc(C)cc2)c(-c2ccnc(NC(=O)Cc3ccccc3)c2)s1 [L 68-8]
Key: 128 to 129 °C

Exercise: Let us now turn to CCc1nc(-c2ccc(Cl)cc2)c(-c2ccnc(NC(C)=O)c2)s1 [H 82-6]
Key: 190 to 191 °C
